Tested on: EKVX NSCLC
Assay: NCI tumour cell line growth inhibition, 48 h
observation.type: GI50

Use these answered entries as a reference point.
CNC12C3C4C1C1C2C3C41C(=O)N[C@H](C(=O)N(C)[C@H](C[C@@H](OC(C)=O)c1nc(C(=O)N[C@@H](Cc2ccccc2)C[C@H](C)C(=O)OC)cs1)C(C)C)C1CC1 (stereo partly drawn) ... 1.95 µM
C/C=C/C=C/CCCCCCCCCCCCC[C@]1(OC)C=CC(CC(=O)OC)OO1 (stereo partly drawn) ... 26.3 µM

Here's the next entry for you.
Q) Entry Cc1cc(S(=O)(=O)Nc2nc3ccccc3[nH]2)c(SCc2ccccc2)cc1Cl : reported GI50 = ?
A) > 100 µM

----------
Parameter TGI: see the listing below.
Test system: OVCAR-5 ovarian
Experiment: NCI tumour cell line growth inhibition, 48 h

The following compounds have reported results that may help.
Cc1ccc(S(=O)(=O)NNC(C[N+](=O)[O-])c2ccccc2)cc1 (stereo unspecified) ... > 100 µM
Cc1ccc2nc(-c3ccc(-c4nc5ccc(C)cc5o4)c(O)c3)oc2c1 ... > 100 µM
CC(C)(C)c1cc(-c2c3nc(c(-c4cc(C(C)(C)C)cc(C(C)(C)C)c4)c4ccc([nH]4)c(-c4cc(C(C)(C)C)cc(C(C)(C)C)c4)c4nc(c(-c5cc(C(C)(C)C)cc(C(C)(C)C)c5)c5ccc2[nH]5)C=C4)C=C3)cc(C(C)(C)C)c1 ... > 100 µM
C[N+]1(C)C/C(=C\c2ccc(O)cc2)C(=O)/C(=C/c2ccc(O)cc2)C1 ... > 100 µM
Cc1cccc(/C=C2/C(=O)Nc3ccccc32)n1 ... 27 µM

Next compound, please.
Q) Please state recorded TGI (tested on OVCAR-5 ovarian) of CC1NCCc2c1[nH]c1cc(O)ccc21 (stereo unspecified)
A) > 100 µM

----------
Tested on: MOLT-4 leukemia
Assay: NCI tumour cell line growth inhibition, 48 h
Measured TGI, listed per entry.

Guide cases for TGI, answers given:
COc1ccc(C2CC(c3cccc(OC)c3)=NN2C(=O)c2cc(OC)c(OC)c(OC)c2)cc1 (configuration not stated) ... > 100 µM
OCCSCC/C(=N\N=C(/CCSCCO)c1ccccc1)c1ccccc1 ... > 100 µM
O=C(Nc1cc(C(F)(F)F)cc(C(F)(F)F)c1)Nc1ccc(OCc2nnc(-c3ccc(Cl)cc3)o2)c(F)c1 ... 12 µM
Cc1nnc2n1N=C(c1ccc(-c3ccc([N+](=O)[O-])cc3)o1)CS2 ... > 100 µM
c1ccc2c(-c3cnn4cc(-c5ccc(N6CCNCC6)cc5)cnc34)ccnc2c1 ... 2.34 µM

Q) # value lookup — system MOLT-4 leukemia, readout TGI, item Cn1nc(S(N)(=O)=O)s/c1=N/S(=O)(=O)c1ccc(N)cc1
A) > 100 µM

Q) Form field - read-out: TGI; system: MOLT-4 leukemia; submitted item: CC(C)(C)CN1[C@@H]2CCCC[C@H]2N(CC(C)(C)C)P1(=O)C(O)/C=C/c1ccccc1 (some centres not stated)
A) > 100 µM

----------
Tested on: 786-0 renal
Test: NCI tumour cell line growth inhibition, 48 h
observation.type: TGI

Record excerpt, results attached:
COc1ccc(C2SCC(=O)N2NC(=O)C(O)c2ccccc2)cc1 (stereo not drawn) ... > 100 µM
C=C(C)CCN(C(=O)OC(C)(C)C)c1cc(C(C)C)co1 ... > 100 µM

Query compound follows.
Q) Hello, I am looking for reported TGI with 786-0 renal for O=C(/C=C/c1ccc(O)cc1)c1cc(-c2cc(CCC(=O)c3ccc(O)cc3O)ccc2O)c(O)cc1O . Could you help?
A) > 50 µM

----------
System: HL-60(TB) leukemia
Assay: NCI tumour cell line growth inhibition, 48 h
Some compounds, each annotated with its measured TGI.

COC1C(O)CC(OC2CC(OC3CC(O[C@@H]4C(=O)c5c(cc6cc(OC7CC(OC8CC(O)C(O)C(C)O8)C(O)C(C)O7)c(C)c(O)c6c5O)C[C@H]4[C@H](OC)C(=O)[C@@H](O)[C@@H](C)O)OC(C)C3O)OC(C)C2O)OC1C (stereo partly drawn) ... 1.57 µM
Cc1c(-c2ccccc2)c(C#N)c2nnn(C)c(=O)n12 ... > 100 µM

Q) // query TGI value for entry Nc1cc(N)cc(Cc2ccccc2)c1
A) > 100 µM

----------
TGI values for the molecules below.
Test system: U251 CNS
Experiment: NCI tumour cell line growth inhibition, 48 h
Please reply with the bare figure in µM and do not write the unit itself.

C[n+]1cc2cc3c(cc2c2ccccc21)OCO3 ... 11.3

Q) Could you share which TGI value was measured for CN(C)c1cccc(/C=C(\C#N)c2ccccc2)c1 ?
A) 27.1

Q) Reported TGI for O=C(NCCNC(=O)c1ccc(F)cc1)Nc1ccc(-n2cc(-c3ccncc3)c(-c3ccc(Cl)c(O)c3)n2)cc1 : what is it?
A) 2.64

Q) Returns the measured TGI for the input molecule. Input: Cc1nc2ccccc2c(/C=C/c2ccccc2)c1C(=O)/C=C/c1ccc(Cl)cc1
A) 2.88

Q) What measured TGI goes with CC(C)=CC[C@H]1C[C@@]2(CC=C(C)C)C(=O)/C(=C(/O)c3ccccc3)C(=O)[C@](CC=C(C)C)(C2=O)C1(C)C ?
A) 20.8

Q) Consider the molecule CN(C)CCC(/C=C/c1ccccc1)=N\Nc1ccc(Cl)cc1 and give its measured TGI.
A) 5.51

----------
Test system: MDA-MB-231 breast
Assay: NCI tumour cell line growth inhibition, 48 h
Documented TGI across a set of compounds

# example entries with known answers
COc1cc(/C=C2\C(=O)N(c3ccc(NC(C)=O)cc3)C(c3ccccc3)S2(=O)=O)cc(OC)c1OC (centres undefined) ... > 100 µM
Oc1ccccc1-c1n[nH]c(-c2ccccc2O)n1 ... > 100 µM
CNC(=O)OCc1nc(N=[N+]=[N-])n(C)c1COC(=O)NC ... > 100 µM

Q) // returns reported TGI for input O=C(/C=C/c1ccc(O)cc1)c1cc(-c2cc(CCC(=O)c3ccc(O)cc3O)ccc2O)c(O)cc1O
A) > 50 µM

Q) Dear colleague, I am looking for the recorded TGI of the following compound: C=C(C)CCN(C(=O)OC(C)(C)C)c1cc(C(C)C)co1
A) > 100 µM

Q) What value of TGI has been recorded for this entry: CCOc1ccc2c(c1)C(=O)c1c-2n(CCCN)c(=O)c2cc([N+](=O)[O-])ccc12
A) 3.43 µM

Q) Find the recorded TGI belonging to OCC#CCCCCOCC#Cc1ccccc1C#CCOCCCCC#CCO and report it.
A) 38.3 µM

Q) Give the measured TGI of COC1=CC(=O)c2c(n[nH]c2CCNC(=O)OCc2ccccc2)C1=O .
A) 31.3 µM

Q) GET /values?readout=TGI&item= C=C(C[C@@H](O)[C@H](C)NC(=O)OCc1ccccc1)C(=O)OC(C)(C)C
A) > 100 µM

Q) # TGI lookup, item O=C(O)c1cc2cc(O)ccc2[nH]1
A) > 100 µM

Q) Endpoint output: TGI of O=C(c1ccccc1)c1ccc(O)c2ncccc12 . Value?
A) 64.3 µM

Q) What value of TGI has been reported for the following compound? CC(C)(C)CN1[C@@H]2CCCC[C@H]2N(CC(C)(C)C)P1(=O)C(O)/C=C/c1ccccc1 (some centres undefined)
A) > 100 µM

Q) Need TGI, item Cc1cc(S(=O)(=O)Nc2nc3ccccc3[nH]2)c(SCc2ccccc2)cc1Cl
A) 51.5 µM

Q) Suppose we examine the compound O=c1[nH]c2cc3[nH]c(=O)c(=O)[nH]c3cc2[nH]c1=O ; what TGI value has been reported?
A) > 100 µM

Q) Any idea what its TGI is? The compound is CCOC(=O)Nc1ccc(C(=O)/C=C/c2ccccc2)cc1
A) > 100 µM

Q) What does the data say about its TGI? Entry: COC(=O)/C(C#N)=C(/NCc1ccccc1)Nc1ccccc1
A) > 100 µM

Q) Any idea what TGI was measured for C[C@@H]1CC[C@@H]2[C@@H]1[C@H](OC(=O)c1ccc3ccccc3c1)[C@]1(C3CCCCC3)C[C@@H](OC(=O)CO)[C@@]2(C)O1 ?
A) 29.3 µM

Q) Report TGI for Cc1[nH]c(=O)nc(N/N=C/c2ccc(Cl)cc2)c1C(=O)Nc1ccc(Cl)cc1 please.
A) 26.2 µM

Q) Returns the measured TGI for the input compound. Input: OCc1ncc(-c2ccccc2)s1
A) > 100 µM

Q) Recorded TGI of COc1ccc(OC)c([N+](=O)[O-])c1-c1nc2sc(C)c(C)n2c1/C=N/N=C(N)N , please.
A) > 100 µM

----------
Test system: OVCAR-5 ovarian
Experiment: NCI tumour cell line growth inhibition, 48 h
# TGI values compiled below
The reply should contain only the number, in µM.

C=C1C(=O)OC2/C=C(\C)CC/C=C(\C)CC(OC(=O)/C(=C/CO)CO)[C@@H]12 (stereo not given in full) ... 31.3
O=C(c1ccccc1)c1ccc(O)c2ncccc12 ... 22.3
O=[N+]([O-])c1cc(Cl)ccc1S(=O)(=O)c1ccc(Cl)cc1[N+](=O)[O-] ... 34

Q) Would you kindly share the measured TGI for CC(C)(C)OC(=O)NCC(=O)N(CCc1ccc(Cl)c(Cl)c1)CCN1CCCC1 ?
A) 38.7

Q) Can you look up the measured TGI of COc1cc(/C=C2\CC(C)C/C(=C\c3ccc(O)c(OC)c3)C2=O)ccc1O (stereo not given) for me?
A) 40.8

Q) Consider the molecule shown here: CC(C)c1ccc(/C=N/N=C(N)N)cc1 What is its recorded TGI?
A) 30.2

Q) Which TGI reading was recorded for the molecule CNC1=CC(=O)C2=C(C1=O)C1C3=C(C(=O)C(Br)=C(OC)C3=O)C2c2ccccc21 (stereo not given) ?
A) 8.63

Q) // returns reported TGI for input COC1=CC(=O)c2c(n[nH]c2CCNC(=O)OCc2ccccc2)C1=O
A) 32.1

Q) Recorded TGI of O=C1c2ccccc2C(=O)c2sc(Nc3ccc(Cl)cc3)nc21 , please.
A) 7.37

Q) May I ask what TGI has been recorded for c1ccc2c(-c3cnn4cc(-c5ccc(N6CCNCC6)cc5)cnc34)ccnc2c1 ?
A) 2.24

Q) Give its TGI value. Item: COC1C(O)CC(OC2CC(OC3CC(O[C@@H]4C(=O)c5c(cc6cc(OC7CC(OC8CC(O)C(O)C(C)O8)C(O)C(C)O7)c(C)c(O)c6c5O)C[C@H]4[C@H](OC)C(=O)[C@@H](O)[C@@H](C)O)OC(C)C3O)OC(C)C2O)OC1C (stereo not given in full)
A) 0.564

Q) Value lookup for TGI; key = O=C(/C=C/c1ccccc1Br)c1ccccc1
A) 34.2

Q) Which TGI value is on record for O=C(/C=N/O)Nc1ccc(Cl)c(I)c1 ?
A) 62.2

Q) Need TGI of C=C1[C@@H](O)C[C@H]2C(C)(C)C[C@H](Cl)C[C@]2(C)[C@H]1C[C@H](O)[C@H]1CC(=O)NC1=O , thanks.
A) 0.395
